# ELISA Absorbance (405 nm-570 nm) annotations
Target: T1, SLAMF7
T1 construct: coated protein in the ELISA; also called SLAMF7-StrepTag
T1 chain: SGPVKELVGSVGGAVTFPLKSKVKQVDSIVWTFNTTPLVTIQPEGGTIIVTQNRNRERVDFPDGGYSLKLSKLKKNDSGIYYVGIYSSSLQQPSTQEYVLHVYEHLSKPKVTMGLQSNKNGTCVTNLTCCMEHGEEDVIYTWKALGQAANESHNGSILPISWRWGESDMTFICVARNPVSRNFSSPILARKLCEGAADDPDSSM
Assay: ELISA on coated SLAMF7-StrepTag, 150 ng IgG1; None 0.047

binder | reported.measurement
HW-101 chimeric rabbit-human IgG1 LA/LA/PG (antibody, V domains shown, Fc-silenced (L234A/L235A/P329G) IgG1, lambda; Alexa Fluor 647-labeled in single-step flow cytometry; Cluster C-97) VH: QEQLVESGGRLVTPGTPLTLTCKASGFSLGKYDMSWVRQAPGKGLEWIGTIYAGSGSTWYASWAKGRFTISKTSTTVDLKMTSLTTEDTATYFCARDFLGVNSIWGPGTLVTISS VL: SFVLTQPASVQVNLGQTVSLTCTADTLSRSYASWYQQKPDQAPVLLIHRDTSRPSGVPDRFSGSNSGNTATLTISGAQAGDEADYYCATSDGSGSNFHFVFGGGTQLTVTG | 0.046
HW-56 chimeric rabbit-human IgG1 LA/LA/PG (antibody, V domains shown, Fc-silenced (L234A/L235A/P329G) IgG1, kappa; Alexa Fluor 647-labeled in single-step flow cytometry; Cluster C-45) VH: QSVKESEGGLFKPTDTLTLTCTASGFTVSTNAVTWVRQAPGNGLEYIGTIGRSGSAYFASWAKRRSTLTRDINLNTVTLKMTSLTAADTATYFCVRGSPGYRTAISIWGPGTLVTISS VL: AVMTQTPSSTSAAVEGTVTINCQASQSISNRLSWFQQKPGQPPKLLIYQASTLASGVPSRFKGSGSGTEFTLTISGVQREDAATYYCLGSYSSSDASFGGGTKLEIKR | 0.074
HW-17 chimeric rabbit-human IgG1 LA/LA/PG (antibody, V domains shown, Fc-silenced (L234A/L235A/P329G) IgG1, lambda; Alexa Fluor 647-labeled in single-step flow cytometry; Cluster C-1) VH: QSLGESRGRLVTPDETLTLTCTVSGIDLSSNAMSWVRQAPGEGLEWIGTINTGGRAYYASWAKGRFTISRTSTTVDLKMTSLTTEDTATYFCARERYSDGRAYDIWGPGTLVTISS VL: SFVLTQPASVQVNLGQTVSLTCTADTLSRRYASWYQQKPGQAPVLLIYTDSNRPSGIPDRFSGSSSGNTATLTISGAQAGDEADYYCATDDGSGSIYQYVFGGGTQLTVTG | 0.053
HW-8 chimeric rabbit-human IgG1 LA/LA/PG (antibody, V domains shown, Fc-silenced (L234A/L235A/P329G) IgG1, kappa; Alexa Fluor 647-labeled in single-step flow cytometry; Cluster C-45) VH: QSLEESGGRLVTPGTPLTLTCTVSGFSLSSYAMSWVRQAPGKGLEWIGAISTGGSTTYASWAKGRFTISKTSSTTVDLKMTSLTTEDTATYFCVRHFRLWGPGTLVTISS VL: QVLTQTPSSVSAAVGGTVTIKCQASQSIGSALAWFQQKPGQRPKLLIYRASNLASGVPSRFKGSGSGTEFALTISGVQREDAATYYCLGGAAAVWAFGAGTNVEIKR | 0.049
HW-1 chimeric rabbit-human IgG1 LA/LA/PG (antibody, V domains shown, Fc-silenced (L234A/L235A/P329G) IgG1, lambda; Alexa Fluor 647-labeled in single-step flow cytometry; Prototype of cluster C-1) VH: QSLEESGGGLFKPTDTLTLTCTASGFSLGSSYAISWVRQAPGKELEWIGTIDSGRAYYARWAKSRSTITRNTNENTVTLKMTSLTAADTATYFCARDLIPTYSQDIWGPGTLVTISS VL: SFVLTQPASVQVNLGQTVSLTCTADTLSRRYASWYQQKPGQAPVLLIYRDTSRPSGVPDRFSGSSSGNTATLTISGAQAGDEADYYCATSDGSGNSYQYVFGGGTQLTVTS | 0.053
HW-113 chimeric rabbit-human IgG1 LA/LA/PG (antibody, V domains shown, Fc-silenced (L234A/L235A/P329G) IgG1, lambda; Alexa Fluor 647-labeled in single-step flow cytometry) VH: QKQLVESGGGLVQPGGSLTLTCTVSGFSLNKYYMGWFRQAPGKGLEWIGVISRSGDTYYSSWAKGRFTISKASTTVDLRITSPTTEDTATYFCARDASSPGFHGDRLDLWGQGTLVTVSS VL: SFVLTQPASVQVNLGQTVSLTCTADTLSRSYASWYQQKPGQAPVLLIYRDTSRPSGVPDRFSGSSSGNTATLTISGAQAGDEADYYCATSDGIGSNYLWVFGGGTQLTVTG | 0.048
TH9-0022 (antibody, human IgG1, kappa, L234A L235A, V domains shown, also called TH9-022; negative control) VH: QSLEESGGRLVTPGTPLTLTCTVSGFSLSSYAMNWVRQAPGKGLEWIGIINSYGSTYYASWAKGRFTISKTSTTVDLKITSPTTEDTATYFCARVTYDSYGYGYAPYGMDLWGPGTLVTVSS VL: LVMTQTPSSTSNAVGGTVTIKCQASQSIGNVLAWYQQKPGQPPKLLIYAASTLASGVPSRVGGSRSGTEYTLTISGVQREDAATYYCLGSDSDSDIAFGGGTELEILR | 0.052
HW-25 chimeric rabbit-human IgG1 LA/LA/PG (antibody, V domains shown, Fc-silenced (L234A/L235A/P329G) IgG1, lambda; Alexa Fluor 647-labeled in single-step flow cytometry; Cluster C-1) VH: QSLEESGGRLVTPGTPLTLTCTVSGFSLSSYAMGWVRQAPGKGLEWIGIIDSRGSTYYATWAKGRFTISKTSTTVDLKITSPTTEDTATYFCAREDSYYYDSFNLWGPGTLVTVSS VL: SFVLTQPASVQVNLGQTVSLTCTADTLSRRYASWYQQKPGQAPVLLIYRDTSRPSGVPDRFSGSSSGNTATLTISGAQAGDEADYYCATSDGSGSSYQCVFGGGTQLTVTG | 0.054

Please examine the following record next.
[Q] If you can, please state the reported ELISA Absorbance (405 nm-570 nm) value of HW-42 chimeric rabbit-human IgG1 LA/LA/PG (antibody, V domains shown, Fc-silenced (L234A/L235A/P329G) IgG1, lambda; Alexa Fluor 647-labeled in single-step flow cytometry; Cluster C-1) VH: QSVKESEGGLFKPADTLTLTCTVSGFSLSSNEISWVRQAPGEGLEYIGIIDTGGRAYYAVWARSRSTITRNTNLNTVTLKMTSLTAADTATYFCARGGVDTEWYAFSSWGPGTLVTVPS VL: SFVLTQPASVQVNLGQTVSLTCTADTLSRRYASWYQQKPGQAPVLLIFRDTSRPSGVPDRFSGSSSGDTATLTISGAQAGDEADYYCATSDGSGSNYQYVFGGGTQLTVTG .
[A] 0.054

These entries and their values trace back to patent US20260049134A1.
